The reported numbers originate from paper PMC10584170.

Tested on: HepG2 cells
Assay Text: HepG2 cytotoxicity counter-screen
Reported Conditions: cytotoxic activity against HepG2 cells
Entries and their measured Tox50 follow.
Quantity Measured: Tox50 (µM)

>>> print(df.to_string())
                                   molecule  endpoint_value
0              Cc1sc2ncnc(Sc3nnc(N)s3)c2c1C           66.05
1  CC(C#N)Cc1ccc(-c2cnc(N)c3cc(-c4ccnc(N)n4)ccc23)cc1 (stereo not shown)            2.39
2  COc1c(CCNCCCCNCCc2cc(Cl)c3ccccc3c2OC)cc(Cl)c2ccccc12.CS(=O)(=O)O            2.99
3  CN(C)CCNCc1cccc(-c2ccc3c(Nc4ccc(Oc5ccccn5)cc4)ccnc3c2)c1           11.38
